# Test system: TK-10;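 further: growth inhibition of TK-10 cells, read out in a cell viability assay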
# assay-comment: cells
# Format: functional, cell-based
# test-context: Homo sapiens
# Description: SANGER: Inhibition of human TK10 cell growth in a cell viability assay.
quantity: IC50

- CCn1c(-c2nonc2N)nc2cnc(Oc3cccc(NC(=O)c4ccc(OCCN5CCOCC5)cc4)c3)cc21 [GSK-269962A]: > 2.5 µM
- C/C(O)=C(\C#N)C(=O)Nc1cc(Br)ccc1Br: > 16 µM
- CCCS(=O)(=O)Nc1ccc(F)c(C(=O)c2c[nH]c3ncc(Cl)cc23)c1F: > 10 µM
- COc1cc(C)c(Sc2cnc(NC(=O)c3ccc(CNC(C)C(C)(C)C)cc3)s2)cc1C(=O)N1CCN(C(C)=O)CC1 (centres undefined): > 10.2 µM

====

# Tested on: ME-180;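 further: cell viability assay measuring growth inhibition of ME-180 cells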
# assay-comment: cells
# Type: functional, cell-based
# test-context: Homo sapiens
# Description: SANGER: Inhibition of human ME-180 cell growth in a cell viability assay.
quantity: IC50

- CCCS(=O)(=O)Nc1ccc(F)c(C(=O)c2c[nH]c3ncc(Cl)cc23)c1F: > 10 µM
- COc1cc(Nc2c(C#N)cnc3cc(OCCCN4CCN(C)CC4)c(OC)cc23)c(Cl)cc1Cl: > 2 µM
- CC(C)=CC[C@@H](O)C1=CC(=O)c2c(O)ccc(O)c2C1=O: 0.279 µM
- O=c1[nH]c2ccccc2n1C1CCN(Cc2ccc(-c3nc4cc5[nH]cnc5cc4nc3-c3ccccc3)cc2)CC1: > 2.56 µM
- CC[C@]1(O)C[C@@H]2CN(CCc3c([nH]c4ccccc34)[C@@](C(=O)OC)(c3cc4c(cc3OC)N(C)[C@H]3[C@@](O)(C(=O)OC)[C@H](OC(C)=O)[C@]5(CC)C=CCN6CC[C@]43[C@@H]65)C2)C1: 0.00447 µM
- O=c1cc(N2CCOCC2)oc2c(-c3cccc4c3sc3ccccc34)cccc12: > 2 µM
- CC(O)(CS(=O)(=O)c1ccc(F)cc1)C(=O)Nc1ccc(C#N)c(C(F)(F)F)c1 (configuration not stated) [BICALUTAMIDE]: > 1.02 µM

====

# Test system: BHT-101
# assay-comment: cells
# Assay type: functional, cell-based
# test-context: Homo sapiens
# Description: SANGER: Inhibition of human BHT-101 cell growth in a cell viability assay.
pIC50: −log10 of the molar value.
quantity: pIC50

• Cn1c(=O)n(-c2ccc(C(C)(C)C#N)cc2)c2c3cc(-c4cnc5ccccc5c4)ccc3ncc21 [DACTOLISIB] = 7.52
• Fc1cc(-c2cc[nH]/c(=N/c3ccc(-n4cnc(N5CCOCC5)n4)cc3)n2)cc(N2CCOCC2)c1 = 6.18
• CCNC(=O)c1noc(-c2cc(C(C)C)c(O)cc2O)c1-c1ccc(CN2CCOCC2)cc1 [LUMINESPIB] = 7.23
• CC(C)=CC[C@@H](O)C1=CC(=O)c2c(O)ccc(O)c2C1=O [SHIKONIN] = 5.90

====

# Tested on: NCI-H1650;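 further: growth inhibition of human NCI-H1650 cells measured by a cell viability assay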
# assay-comment: cells
# Type: functional, cell-based
# test-context: Homo sapiens
# Description: SANGER: Inhibition of human NCI-H1650 cell growth in a cell viability assay.
quantity: IC50

• Cn1c(=O)n(-c2ccc(C(C)(C)C#N)cc2)c2c3cc(-c4cnc5ccccc5c4)ccc3ncc21 = 204 nM
• CCn1c(-c2nonc2N)nc2cnc(Oc3cccc(NC(=O)c4ccc(OCCN5CCOCC5)cc4)c3)cc21 [GSK-269962A] = > 2500 nM
• O=c1cc(N2CCOCC2)oc2c(-c3cccc4c3sc3ccccc34)cccc12 = > 2000 nM

====

# System: TUR;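 further: growth inhibition of human TUR cells, read out with a cell viability assay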
# assay-comment: cells
# Type: functional, cell-based
# test-context: Homo sapiens
# Description: SANGER: Inhibition of human TUR cell growth in a cell viability assay.
quantity: IC50

• N#C/C(=C1/Nc2ccccc2S1)c1ccnc(NCCc2cccnc2)n1 = > 8 µM
• O=c1[nH]c2ccccc2n1C1CCN(Cc2ccc(-c3nc4cc5[nH]cnc5cc4nc3-c3ccccc3)cc2)CC1 = > 2.56 µM
• C/C(O)=C(\C#N)C(=O)Nc1cc(Br)ccc1Br = > 16 µM
• COc1cc(C)c(Sc2cnc(NC(=O)c3ccc(CNC(C)C(C)(C)C)cc3)s2)cc1C(=O)N1CCN(C(C)=O)CC1 (stereo unspecified) = > 10.2 µM
• Cc1[nH]c(/C=C2\C(=O)Nc3ccc(S(=O)(=O)Cc4c(Cl)cccc4Cl)cc32)c(C)c1C(=O)N1CCC[C@@H]1CN1CCCC1 = > 2 µM
• Cc1n[nH]c2ccc(-c3cncc(OC[C@@H](N)Cc4c[nH]c5ccccc45)c3)cc12 = > 1.02 µM

====

# Tested on: NCI-H292
# assay-comment: cells
# Type: functional, cell-based
# test-context: Homo sapiens
# Description: SANGER: Inhibition of human NCI-H292 cell growth in a cell viability assay.
quantity: IC50

• O=c1[nH]c2ccccc2n1C1CCN(Cc2ccc(-c3nc4cc5[nH]cnc5cc4nc3-c3ccccc3)cc2)CC1 = > 2.56 µM
• C/C(O)=C(\C#N)C(=O)Nc1cc(Br)ccc1Br = > 16 µM
• Fc1cc(-c2cc[nH]/c(=N/c3ccc(-n4cnc(N5CCOCC5)n4)cc3)n2)cc(N2CCOCC2)c1 = 0.508 µM
• N#C/C(=C1/Nc2ccccc2S1)c1ccnc(NCCc2cccnc2)n1 = > 8 µM
• Cn1c(=O)n(-c2ccc(C(C)(C)C#N)cc2)c2c3cc(-c4cnc5ccccc5c4)ccc3ncc21 [DACTOLISIB] = 0.027 µM
• CCCS(=O)(=O)Nc1ccc(F)c(C(=O)c2c[nH]c3ncc(Cl)cc23)c1F [PLX-4720] = > 10 µM

====

# Tested on: M14
# assay-comment: cells
# Type: functional, cell-based
# test-context: Homo sapiens
# Description: SANGER: Inhibition of human M14 cell growth in a cell viability assay.
Collected IC50 values appear next to each entry.
quantity: IC50 (µM)

- CO[C@@]12[C@H](COC(N)=O)C3=C(C(=O)C(C)=C(N)C3=O)N1C[C@@H]1N[C@@H]12: 1.34
- C/C=C(/C)C(=O)O[C@H]1C(C)=C2[C@H]([C@@H]1OC(=O)CCCCCCC)[C@@](C)(OC(C)=O)C[C@H](OC(=O)CCC)[C@@]1(O)[C@H]2OC(=O)[C@@]1(C)O: 0.014

====

# System: NCI-H1155
# assay-comment: cells
# Format: functional, cell-based
# test-context: Homo sapiens
# Description: SANGER: Inhibition of human NCI-H1155 cell growth in a cell viability assay.
pIC50: −log10 of the molar value.
Collected pIC50 values appear next to each entry.
quantity: pIC50

• Cn1c(=O)n(-c2ccc(C(C)(C)C#N)cc2)c2c3cc(-c4cnc5ccccc5c4)ccc3ncc21 = 7.32
• C/C(O)=C(\C#N)C(=O)Nc1cc(Br)ccc1Br = < 4.80
• Cn1cc(/C=C2\C(=O)Nc3cccnc32)c2ccccc21 = < 5.70
• Fc1cc(-c2cc[nH]/c(=N/c3ccc(-n4cnc(N5CCOCC5)n4)cc3)n2)cc(N2CCOCC2)c1 = 5.58
• Cc1nc(Nc2ncc(C(=O)Nc3c(C)cccc3Cl)s2)cc(N2CCN(CCO)CC2)n1 = < 5.89
• Cc1n[nH]c2ccc(-c3cncc(OC[C@@H](N)Cc4c[nH]c5ccccc45)c3)cc12 = 6.25
• Cc1ccc(NC(=O)c2cccc(C(C)(C)C#N)c2)cc1Nc1ccc2ncn(C)c(=O)c2c1 = < 5.40
• N#C/C(=C1/Nc2ccccc2S1)c1ccnc(NCCc2cccnc2)n1 = < 5.10
• COc1cc(C)c(Sc2cnc(NC(=O)c3ccc(CNC(C)C(C)(C)C)cc3)s2)cc1C(=O)N1CCN(C(C)=O)CC1 (stereo not given) = < 4.99
• CCNC(=O)c1noc(-c2cc(C(C)C)c(O)cc2O)c1-c1ccc(CN2CCOCC2)cc1 = < 6.59

====

# Tested on: SW48
# assay-comment: cells
# Assay type: functional, cell-based
# test-context: Homo sapiens
# Description: SANGER: Inhibition of human SW48 cell growth in a cell viability assay.
quantity: log10(IC50) (log10 of the value in nM)

• CO[C@@]12[C@H](COC(N)=O)C3=C(C(=O)C(C)=C(N)C3=O)N1C[C@@H]1N[C@@H]12 = 2.29
• Fc1cc(-c2cc[nH]/c(=N/c3ccc(-n4cnc(N5CCOCC5)n4)cc3)n2)cc(N2CCOCC2)c1 = 2.87
• CCNC(=O)c1noc(-c2cc(C(C)C)c(O)cc2O)c1-c1ccc(CN2CCOCC2)cc1 = 1.61
• C[C@]12O[C@H](C[C@]1(O)CO)n1c3ccccc3c3c4c(c5c6ccccc6n2c5c31)CNC4=O = 1.85
• NC(=O)c1ncn([C@@H]2O[C@H](COP(=O)(O)O)[C@@H](O)[C@H]2O)c1N = 5.97
• C/C=C(/C)C(=O)O[C@H]1C(C)=C2[C@H]([C@@H]1OC(=O)CCCCCCC)[C@@](C)(OC(C)=O)C[C@H](OC(=O)CCC)[C@@]1(O)[C@H]2OC(=O)[C@@]1(C)O = 0.22

====

Collected IC50 values appear next to each entry.
# Test system: SU-DHL-1
# assay-comment: SANGER: Inhibition of human SU-DHL-1 cell growth in a cell viability assay.
# Assay type: functional, cell-based
quantity: IC50

• O=c1[nH]c2ccccc2n1C1CCN(Cc2ccc(-c3nc4cc5[nH]cnc5cc4nc3-c3ccccc3)cc2)CC1 = > 2560 nM
• Cc1nc(Nc2ncc(C(=O)Nc3c(C)cccc3Cl)s2)cc(N2CCN(CCO)CC2)n1 = > 1280 nM
• CO[C@@]12[C@H](COC(N)=O)C3=C(C(=O)C(C)=C(N)C3=O)N1C[C@@H]1N[C@@H]12 = < 62.5 nM
• Fc1cc(-c2cc[nH]/c(=N/c3ccc(-n4cnc(N5CCOCC5)n4)cc3)n2)cc(N2CCOCC2)c1 = 346 nM
